Values were extracted from patent US20250250357A1.

Assign OD450 at none (no antibody) to each entry below.
experimentalSystem: T1, human MSLN-R2-his protein (human, UniProt Q13421 391-486)
T1 construct: Region 2 of human MSLN, His-tagged; also called human MSLN-R2 protein; hMSLN-R2-his; not shown: His tag
T1 sequence (Q13421 other isoform, or with tags, fused parts or gaps): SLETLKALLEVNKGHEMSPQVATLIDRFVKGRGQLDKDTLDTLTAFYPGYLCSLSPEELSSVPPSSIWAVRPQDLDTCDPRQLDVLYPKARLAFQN
assayComment: ELISA, coated MSLN-R2;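 also: chimeric antibodies bound to blocked coated plates for 2 h at 37 °C, TMB colour development stopped with HCl, with a negative control antibody for comparison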

Input: Quick one: OD450 at none (no antibody) for S009-F1.56.1 (antibody, human IgG1, kappa, V domains shown, Human-murine chimeric antibody, human IgG1/kappa constant regions) VH: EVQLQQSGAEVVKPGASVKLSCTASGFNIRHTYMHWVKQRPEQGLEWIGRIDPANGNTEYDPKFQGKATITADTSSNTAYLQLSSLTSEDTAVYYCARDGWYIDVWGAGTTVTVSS VL: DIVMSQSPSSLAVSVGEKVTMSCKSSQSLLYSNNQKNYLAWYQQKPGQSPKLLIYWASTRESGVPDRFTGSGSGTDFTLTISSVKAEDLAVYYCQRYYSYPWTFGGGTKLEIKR ?
Output: 0.05 OD450

Input: Now try S009-F1.35.24 (antibody, human IgG1, kappa, V domains shown, Human-murine chimeric antibody, human IgG1/kappa constant regions) VH: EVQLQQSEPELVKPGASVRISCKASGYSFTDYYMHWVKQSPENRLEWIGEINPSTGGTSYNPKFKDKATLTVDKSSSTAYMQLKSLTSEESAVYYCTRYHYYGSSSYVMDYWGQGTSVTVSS VL: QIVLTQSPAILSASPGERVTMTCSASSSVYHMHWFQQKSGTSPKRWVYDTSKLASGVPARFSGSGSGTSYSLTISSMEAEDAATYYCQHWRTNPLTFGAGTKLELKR .
Output: 0.05 OD450

Input: Now try S009-F1.57.1 (antibody, human IgG1, kappa, V domains shown, Human-murine chimeric antibody, human IgG1/kappa constant regions) VH: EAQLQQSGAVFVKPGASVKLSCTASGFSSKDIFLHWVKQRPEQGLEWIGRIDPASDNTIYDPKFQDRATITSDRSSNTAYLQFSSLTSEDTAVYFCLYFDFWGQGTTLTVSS VL: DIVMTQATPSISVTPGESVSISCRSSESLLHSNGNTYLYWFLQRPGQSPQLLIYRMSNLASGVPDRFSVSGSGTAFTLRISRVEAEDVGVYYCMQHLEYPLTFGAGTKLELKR .
Output: 0.05 OD450

Input: Now try S009-F1.62.9 (antibody, human IgG1, kappa, V domains shown, Human-murine chimeric antibody, human IgG1/kappa constant regions) VH: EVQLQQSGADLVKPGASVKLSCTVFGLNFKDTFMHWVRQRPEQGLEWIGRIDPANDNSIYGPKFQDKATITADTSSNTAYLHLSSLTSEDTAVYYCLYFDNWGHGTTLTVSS VL: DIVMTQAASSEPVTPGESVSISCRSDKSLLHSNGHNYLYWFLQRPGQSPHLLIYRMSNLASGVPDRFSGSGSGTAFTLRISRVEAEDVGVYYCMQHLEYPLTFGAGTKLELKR .
Output: 0.04 OD450

Input: Now try S009-F1.2.12 (antibody, human IgG1, kappa, V domains shown) VH: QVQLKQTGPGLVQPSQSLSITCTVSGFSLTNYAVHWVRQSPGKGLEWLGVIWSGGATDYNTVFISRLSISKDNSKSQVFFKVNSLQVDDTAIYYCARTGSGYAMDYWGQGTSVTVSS VL: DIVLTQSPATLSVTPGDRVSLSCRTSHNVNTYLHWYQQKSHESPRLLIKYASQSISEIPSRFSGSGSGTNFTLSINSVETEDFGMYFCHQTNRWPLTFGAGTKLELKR .
Output: 0.05 OD450

Input: Now try S009-F1.59.1 (antibody, human IgG1, kappa, V domains shown, Human-murine chimeric antibody, human IgG1/kappa constant regions) VH: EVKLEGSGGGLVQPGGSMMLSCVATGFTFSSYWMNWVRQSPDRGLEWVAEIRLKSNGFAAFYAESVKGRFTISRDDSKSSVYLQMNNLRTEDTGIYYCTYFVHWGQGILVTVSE VL: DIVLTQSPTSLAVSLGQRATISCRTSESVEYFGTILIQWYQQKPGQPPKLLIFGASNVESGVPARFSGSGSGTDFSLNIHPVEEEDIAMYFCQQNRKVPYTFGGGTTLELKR .
Output: 0.04 OD450

Input: Now try S009-F1.25.10 (antibody, human IgG1, kappa, V domains shown, Human-murine chimeric antibody, human IgG1/kappa constant regions) VH: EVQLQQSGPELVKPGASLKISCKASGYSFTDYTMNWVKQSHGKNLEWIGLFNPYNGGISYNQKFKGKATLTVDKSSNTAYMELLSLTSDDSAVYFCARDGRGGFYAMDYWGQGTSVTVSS VL: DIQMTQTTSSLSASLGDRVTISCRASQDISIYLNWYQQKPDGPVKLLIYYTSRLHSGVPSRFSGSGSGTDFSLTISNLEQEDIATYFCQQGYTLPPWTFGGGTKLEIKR .
Output: 0.05 OD450
